Origin of the recorded values: the supplement of paper PMC10567573

B1: KLHL20 (parent)
chain: YQDMIYAVGGRDDTTELSSAERYN

Variants of: B1
Experiment: protein stability index of a GFP-peptide fusion (GPS, HEK-293T) (PSI 1-6); higher = more stable;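 note: lentivirally expressed fusions sorted by FACS into six bins by GFP to DsRed ratio, PSI derived from sequencing read proportions per bin multiplied by bin number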
Conditions: c terminus: a fixed tail appended
I would appreciate it if you labelled entries rule met when protein stability index is 3 or higher, otherwise rule not met.

Solved entries:
> print(dat)
   alteration      category
1         Y6D      rule met
2        Y23C  rule not met
3        S18L  rule not met

Form field: protein stability index at least 3? Entry: Y1I
rule met

What about T14L ?
rule not met

What about D3M ?
rule not met

What about V8W ?
rule not met

What about G9V ?
rule not met

What about I5L ?
rule not met

What about E21N ?
rule not met

What about A7T ?
rule not met

What about A7H ?
rule not met

What about R22P ?
rule not met
